Assign IC50 to each entry below.
- System: IGROV1 complex spheroids (HUVEC, MSC), viability % test/control
- PROTOCOL: Anticancer human tumor IGROV1 cell line growth inhibition [GQUAD];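 further: spheroids exposed to compounds for 7 days before readout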
- CONDITIONS: curve of first compound; second compound 0.0316 µM
Write down the numeric answer in nM and omit the unit.

Lookup result for CC[C@@]1(O)C(=O)OCc2c1cc1n(c2=O)Cc2cc3c(CN(C)C)c(O)ccc3nc2-1 + CN(C)c1ccc(Nc2c3ccc(NC(=O)CCN4CCCC4)cc3nc3cc(NC(=O)CCN4CCCC4)ccc23)cc1 ; measured IC50: 22.1

Lookup result for CCCS(=O)(=O)Nc1ccc(F)c(C(=O)c2c[nH]c3ncc(-c4ccc(Cl)cc4)cc23)c1F + Cc1cnc(CNC(=O)c2c(=O)c3ccc(N4CCCN(C)CC4)nc3n3c2sc2ccccc23)cn1 ; measured IC50: 1470

Lookup result for C=CCn1c(=O)c2cnc(Nc3ccc(N4CCN(C)CC4)cc3)nc2n1-c1cccc(C(C)(C)O)n1 + Cc1[nH]c2ccc(F)cc2c1-c1nc2c3cccnc3c3ncccc3c2[nH]1 ; measured IC50: 141

Data provenance is PubChem BioAssay AID2060486.
